For each record, write down the corresponding pIC50.
molecular target: Autotaxin (ENPP2, NPP2) (Homo sapiens, UniProt Q13822 Q13822:36-863); experiment: inhibition; NPP2 assay, pNP-TMP substrate, solution A (Ca, Mg), 37 C
Give bare numbers, as −log10 of the molar value.

These recorded examples may help you get a feel for the data.
# BINDER, pIC50
data = [
    ("UCUGAGGGAAACAGGUUUUGCUCCUCGGA (mixed, dT1; 2'-deoxy G8,G14,G15; 2'-OMe G4,A5,G6,G7,A9,A11,A13,G20,G27,G28,A29; 2'-OH A10 with PS; other pyrimidines 2'-F; 5' 80 kDa PEG (GL2-800GS2)-ssH linker; 3' idT) [SEQ 16(53)]", 8.57),
    ("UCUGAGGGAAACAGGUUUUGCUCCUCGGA (mixed, dT1; 2'-deoxy G8,G14,G15,C23,C26; 2'-OMe G4,A5,G6,G7,A9,A11,A13,U16,G20,G27,G28,A29; 2'-OH A10 with PS; other pyrimidines 2'-F; 5' and 3' idT) [SEQ 16(59)]", 7.80),
    ("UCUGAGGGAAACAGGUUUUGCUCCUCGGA (mixed, dT1; 2'-deoxy G8,G14,G15,C23,C26; 2'-OMe G4,A5,G6,G7,A9,A11,A13,U18,G20,G27,G28,A29; 2'-OH A10 with PS; other pyrimidines 2'-F; 5' and 3' idT) [SEQ 16(62)]", 7.64),
    ("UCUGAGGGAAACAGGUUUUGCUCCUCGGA (mixed, 2'-deoxy G8,G14,G15,C23,C26; 2'-OMe G4,A5,G6,G7,A9,A11,A13,G20,G27,G28,A29; 2'-OH A10 with PS; other pyrimidines 2'-F; 5' 80 kDa PEG (GL2-800GS2)-ssH linker; 3' idT) [SEQ 16(51)]", 8.55),
    ("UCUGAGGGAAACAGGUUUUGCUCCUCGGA (mixed, dT1; 2'-deoxy G8,G14,G15,C23,C26; 2'-OMe G4,A5,G6,G7,A9,A11,A13,G20,G27,G28,A29; 2'-OH A10 with PS; other pyrimidines 2'-F; 5' 80 kDa PEG (GL4-800GS2)-ssH linker; 3' idT) [SEQ 16(64)]", 8.89),
]

// for each binder in input: emit pIC50
1. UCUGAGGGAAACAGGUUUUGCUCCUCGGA (mixed, dT1; 2'-deoxy G8,G14,G15,C23,C26; 2'-OMe G4,A5,G6,G7,A9,A11,A13,G20,C21,G27,G28,A29; 2'-OH A10 with PS; other pyrimidines 2'-F; 5' and 3' idT) [SEQ 16(58)]
2. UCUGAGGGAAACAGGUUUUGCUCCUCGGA (mixed, dT1; 2'-deoxy G8,G14,G15,C23,C26; 2'-OMe G4,A5,G6,G7,A9,A11,A13,G20,U22,G27,G28,A29; 2'-OH A10 with PS; other pyrimidines 2'-F; 5' and 3' idT) [SEQ 16(57)]
3. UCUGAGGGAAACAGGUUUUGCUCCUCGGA (mixed, dT1; 2'-deoxy G8,G14,G15,C23,C26; 2'-OMe G4,A5,G6,G7,A9,A11,A13,G20,G27,G28,A29; 2'-OH A10 with PS; other pyrimidines 2'-F; 5' 40 kDa PEG (GL2-400GS2)-ssH linker; 3' idT) [SEQ 16(63)]

9.22
9.52
9.10
